- target: UniProt:P25090
- Sequence (P25090 1-351): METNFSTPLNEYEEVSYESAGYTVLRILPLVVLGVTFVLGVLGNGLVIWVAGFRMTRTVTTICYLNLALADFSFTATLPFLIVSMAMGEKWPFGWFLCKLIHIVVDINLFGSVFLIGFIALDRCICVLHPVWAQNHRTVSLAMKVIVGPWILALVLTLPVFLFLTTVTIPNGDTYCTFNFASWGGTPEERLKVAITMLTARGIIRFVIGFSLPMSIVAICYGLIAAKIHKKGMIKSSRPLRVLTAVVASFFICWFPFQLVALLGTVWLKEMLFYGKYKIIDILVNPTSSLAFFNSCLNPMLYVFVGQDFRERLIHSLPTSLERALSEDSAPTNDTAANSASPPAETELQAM
- experimentalDetails: Measurement test of agonist activity on human FPRL1 (test of calcium mobilization in cell, HEK293 with human FPRL1 and Gα15 expression vectors)
- experimentalConditions: calcium mobilization in HEK293 cells with human FPRL1 and Gα15 expression vectors
assayEndpoint: log10(EC50) (log10 of the value in nM)
Hi team, quick reminder: these entries are log10 of EC50 (nM).

// below: answered compounds
NC(=O)CN1C[C@@H](c2cc3c(cc2F)OCC3)[C@H](NC(=O)Nc2ccc(F)cc2)C1=O (relative stereo)    -0.54
CNC(=O)C(C)N1C[C@@H](c2ccc(OC)cc2)[C@H](NC(=O)Nc2ccc(F)cc2)C1=O (single isomer, unassigned; isomer a) [Example 19-1]    -0.68
COc1ccc(C2CNC(=O)C2NC(=O)Nc2ccc(F)cc2)cc1 (stereo not shown)    0.05
COc1cc(F)c([C@@H]2CNC(=O)[C@H]2NC(=O)Nc2ccc(F)c(O)c2)c(F)c1 (relative stereo)    -1.05
COc1cc(F)c([C@@H]2CN(CS(C)(=O)=O)C(=O)[C@H]2NC(=O)Nc2ccc(F)cc2)c(F)c1 (relative stereo)    -0.92
COc1cc(F)c([C@@H]2CN(CCO)C(=O)[C@H]2NC(=O)Nc2ccccc2)c(F)c1 (relative stereo)    -0.40

// next entry
Notebook: pull reported log10(EC50) for UniProt:P25090, entry CO/N=C1\NC[C@@H](c2c(F)cc(OC)cc2F)[C@@H]1NC(=O)Nc1cc2ccccc2s1 (single isomer, unassigned)
-0.06

---

- target: UniProt:P25090
- experimentalDetails: Measurement test of agonist activity on human FPRL1 (test of calcium mobilization in cell, HEK293 with human FPRL1 and Gα15 expression vectors)
- experimentalConditions: calcium mobilization in HEK293 cells with human FPRL1 and Gα15 expression vectors
pEC50: −log10 of the molar value.
Cut-off 9 on pEC50, inclusive. At or above means 1; below means 0.

COc1cc(F)c([C@@H]2CN(Cc3nnc(C)o3)C(=O)[C@H]2NC(=O)Nc2ccc(F)cc2)c(F)c1 (single isomer, unassigned) [EXAMPLE 24-18]    1

Assess whether reported pEC50 for COc1cc(F)c([C@@H]2CNC(=O)[C@H]2NC(=O)Nc2ccc(F)c(F)c2)c(F)c1 (relative stereo) [Example 7-9] sits at 9 or higher.
1

Assess whether reported pEC50 for COc1ccc([C@@H]2CN(C)C(=O)[C@H]2NC(=O)Nc2ccc(Cl)cc2)cc1 (single isomer, unassigned) [EXAMPLE 1-6] sits at 9 or higher.
1

Assess whether reported pEC50 for COc1cc(F)c([C@@H]2CNC(=O)[C@H]2NC(=O)Nc2ccc(Cl)cn2)c(F)c1 (relative stereo) [Example 1-32] sits at 9 or higher.
0

Assess whether reported pEC50 for COc1cc(F)c([C@@H]2CN(CCO)C(=O)[C@H]2NC(=O)Nc2ccc(C#N)cc2)c(F)c1 (relative stereo) [Example 24-8] sits at 9 or higher.
1
